System: BjaRWT (B0033|ATG) receiver cells
Test: BjaR receiver cell AHSL dose-response (gfp reporter, plate reader)
Format: cell-based, E. coli XL10-Gold
Conditions: Log([ASHL]) -6.5; sheet 3e
The reader will find reported Mean normalised fluorescence values listed item by item below.

| compound | Mean normalised fluorescence |
| --- | --- |
| CCCCCC(=O)N[C@H]1CCOC1=O [C6HSL] | 1368.65 |
| CCCC(=O)N[C@H]1CCOC1=O [C4HSL] | 89755.1 |
| CC(C)CC(=O)N[C@H]1CCOC1=O [IV-HSL, N-isovaleryl-L-homoserine lactone] | 184419 |
| CCCCCCCCCCCC(=O)N[C@H]1CCOC1=O [C12-HSL] | 3660.47 |

----------
Tested on: BjaRWT (B0034|ACG) receiver cells
Assay: BjaR receiver cell AHSL dose-response (gfp reporter, plate reader)
Format: cell-based, E. coli XL10-Gold
Conditions: Escherichia coli; IV-HSL-activated gfp expression
measuredQuantity: EC50 (nM)

| chemSmiles | reportedValue |
| --- | --- |
| CC(C)CC(=O)N[C@H]1CCOC1=O | 22.3 |

----------
Test system: BjaRWT (B0033|ATG) receiver cells
Test: BjaR receiver cell AHSL dose-response (gfp reporter, plate reader)
Format: cell-based, E. coli XL10-Gold
Settings: Log([ASHL]) -9; sheet 3e
The reader will find reported Mean normalised fluorescence values listed item by item below.

| chemSmiles | assayTarget | Mean normalised fluorescence |
| --- | --- | --- |
| CC(C)CC(=O)N[C@H]1CCOC1=O | BjaRWT (B0033|ATG) receiver cells | 40066 |
| CCCCCC(=O)N[C@H]1CCOC1=O | BjaRWT (B0033|ATG) receiver cells | 1027.01 |
| CCCCCCCCCCCC(=O)N[C@H]1CCOC1=O | BjaRWT (B0033|ATG) receiver cells | 1031.28 |
| CCCC(=O)N[C@H]1CCOC1=O | BjaRWT (B0033|ATG) receiver cells | 1170.67 |

----------
The reader will find reported Mean normalised fluorescence values listed item by item below.
System: BjaRWT (B0033|ATG) receiver cells
Experiment: BjaR receiver cell AHSL dose-response (gfp reporter, plate reader)
Assay type: cell-based, E. coli XL10-Gold
Settings: Log([ASHL]) -11.5; sheet 3e
measuredQuantity: Mean normalised fluorescence

| chemSmiles | reportedValue |
| --- | --- |
| CCCCCC(=O)N[C@H]1CCOC1=O | 1058.71 |
| CCCC(=O)N[C@H]1CCOC1=O | 1165.29 |
| CC(C)CC(=O)N[C@H]1CCOC1=O | 1097.76 |
| CCCCCCCCCCCC(=O)N[C@H]1CCOC1=O | 1958.08 |

----------
System: BjaRWT (B0033|ATG) receiver cells
Experiment: BjaR receiver cell AHSL dose-response (gfp reporter, plate reader)
Type: cell-based, E. coli XL10-Gold
Conditions: Log([ASHL]) -8.5; sheet 3e
measuredQuantity: Mean normalised fluorescence

| compound | reportedValue |
| --- | --- |
| CCCC(=O)N[C@H]1CCOC1=O [C4HSL] | 1297.09 |
| CCCCCC(=O)N[C@H]1CCOC1=O [C6HSL] | 1002.73 |
| CCCCCCCCCCCC(=O)N[C@H]1CCOC1=O [C12-HSL] | 1040.51 |
| CC(C)CC(=O)N[C@H]1CCOC1=O [IV-HSL, N-isovaleryl-L-homoserine lactone] | 106537 |

----------
Test system: BjaRWT (B0033|ATG) receiver cells
Assay: BjaR receiver cell AHSL dose-response (gfp reporter, plate reader)
Type: cell-based, E. coli XL10-Gold
Details: Escherichia coli; IV-HSL-activated gfp expression
pEC50: −log10 of the molar value.

| chemSmiles | assayTarget | pEC50 |
| --- | --- | --- |
| CC(C)CC(=O)N[C@H]1CCOC1=O | BjaRWT (B0033|ATG) receiver cells | 8.41 |

Hey, just so you know, these numbers are from paper PMC10449621.
